// data source = ChEMBL document CHEMBL4190266

test: n-Octanol-buffer distribution coefficient, log D of the compound at pH 7.4 by mass spectrometry based shake flask method; type: physicochemical
Assign logD to each entry below.
Give bare numbers.

// solved cases for logD follow
| COMPOUND | logD |
| --- | --- |
| Oc1ccc2c(c1)CCN(CCCCc1ccccc1)CC2O (stereo not given) | 1.67 |
| OC1CN(CCCCc2ccccc2)CCc2ccccc21 (stereo not given) | 2.7 |
| O=[N+]([O-])c1ccc2c(c1)C(O)CN(CCCCc1ccccc1)CC2 (stereo not given) | 3.82 |
| c1ccc(CCCCN2CCc3ccccc3CC2)cc1 | 3.13 |

Alright, here's another compound for you.
Item: Nc1ccc2c(c1)C(O)CN(CCCCc1ccccc1)CC2 (stereo not given) | logD: 1.58

---

Molecular target: Sigma intracellular receptor 2 (Rattus norvegicus)
Sequence (Q5U3Y7 whole entry): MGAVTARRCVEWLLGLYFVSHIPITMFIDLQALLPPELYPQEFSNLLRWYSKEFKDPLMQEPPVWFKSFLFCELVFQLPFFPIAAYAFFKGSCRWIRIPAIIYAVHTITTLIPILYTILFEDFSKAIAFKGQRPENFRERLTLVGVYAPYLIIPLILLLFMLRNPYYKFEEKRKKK
Assay: Displacement of [3H]DTG from sigma2 receptor in rat liver membranes after 120 mins by microbeta scintillation counting method
Assay type: cell membranes, Membrane
pKi: −log10 of the molar value.
Decide using pKi: a value greater than or equal to 6 is 1, a smaller one is 0.

As a guide, the following entries are already answered.
| COMPOUND | QUALITATIVE LABEL |
| --- | --- |
| O=[N+]([O-])c1ccc2c(c1)C(O)CN(C1CCC(c3ccccc3)CC1)CC2 (mixture of isomers) | 1 |
| OC1CN(CCCCCc2ccccc2)CCc2ccccc21 (configuration not stated) | 1 |
| O=[N+]([O-])c1ccc2c(c1)C(O)CN(CCCCc1ccccc1)CC2 (configuration not stated) | 1 |

Q: Textbook exercise: given the entry OC1CN(C2CCN(Cc3ccccc3)CC2)CCc2ccccc21 (configuration not stated) , state whether its pKi is greater than or equal to 6.
Result: 1

Q: Textbook exercise: given the entry OC1CN(CCc2ccccc2)CCc2ccccc21 (configuration not stated) , state whether its pKi is greater than or equal to 6.
Result: 0

Q: Textbook exercise: given the entry O=[N+]([O-])c1ccc2c(c1)C(O)CN(CCCCCc1ccccc1)CC2 (configuration not stated) , state whether its pKi is greater than or equal to 6.
Result: 1

Q: Textbook exercise: given the entry O=[N+]([O-])c1ccc2c(c1)C(O)CN(CCCc1ccccc1)CC2 (configuration not stated) , state whether its pKi is greater than or equal to 6.
Result: 1

Q: Textbook exercise: given the entry Nc1ccc2c(c1)C(O)CN(CCCCCc1ccccc1)CC2 (configuration not stated) , state whether its pKi is greater than or equal to 6.
Result: 1

---

The compounds below have reported log10 Ki for Sigma non-opioid intracellular receptor 1 (Cavia porcellus, UniProt Q60492).
Note the log scale: values are log10 of Ki expressed in nM.

| COMPOUND | log10 Ki |
| --- | --- |
| O=C(c1ccccc1)N1CCC(N2CCc3ccccc3C(O)C2)CC1 (configuration not stated) | 2.90 |
| OC1CN(CCCCCc2ccccc2)CCc2ccccc21 (configuration not stated) | 2.66 |
| c1ccc(CCCCN2CCc3ccccc3CC2)cc1 | 1.00 |

Report log10 Ki for each item below.
1. O=[N+]([O-])c1ccc2c(c1)C(O)CN(C1CCC(c3ccccc3)CC1)CC2 (mixture of isomers)
2. O=[N+]([O-])c1ccc2c(c1)C(O)CN(CCCCOc1ccccc1)CC2 (configuration not stated)
3. O=[N+]([O-])c1ccc2c(c1)C(O)CN(CCCCc1ccccc1)CC2 (configuration not stated)

Result:
2.56
3.18
2.79

Report log10 Ki for each item below.
1. O=[N+]([O-])c1ccc2c(c1)C(O)CN(CCCc1ccccc1)CC2 (configuration not stated)
2. O=[N+]([O-])c1ccc2c(c1)C(O)CN(Cc1ccccc1)CC2 (configuration not stated)
3. OC1CN(CCc2ccccc2)CCc2ccccc21 (configuration not stated)

Result:
1: 3.11; 2: 2.51; 3: 3.20
